meta.source: patent US20220106288A1

List of IC50 values.
target: NLRP3 (Homo sapiens); experiment: THP-1 cells pyroptosis assay; assay type: cell-based; set-up: Seed THP-1 cells (25,000cells/well) containing 1.0 μg/ml LPS in 40 μl of RPMI medium; host or cells: THP-1 cells; conditions: LPS 1 μg/ml, nigericin 5 μM, resazurin readout

| MOLECULE | IC50 |
| --- | --- |
| CCc1c(F)cc(C(C)C)c(NC(=O)NS(C)(=O)=O)c1-c1ccnc(OC)c1 | 250 to 500 nM |
| [2H]C([2H])([2H])Oc1cc(-c2c(C)cc3c(c2NC(=O)NS(C)(=O)=O)CCC3)ccn1 | ≤ 250 nM |
| Cc1cc2c(c(NC(=O)NS(=O)(=O)N(C)C)c1-c1ccnc(OC3CCN(C)CC3)c1)CCC2 | ≤ 250 nM |
| Cc1cc2c(c(NC(=O)NS(=O)(=O)c3ccn(C(C)C)n3)c1-c1ccnc(OC3CCN(C)CC3)c1)CCC2 | ≤ 250 nM |
| CCOc1cc(-c2c(C)cc3c(c2NC(=O)NS(C)(=O)=O)CCC3)ccn1 | ≤ 250 nM |
| Cc1nc(C(C)C)c(NC(=O)NS(=O)(=O)N(C)C2CCN(C)C2)n1-c1ccncc1 (centres unmarked) | 5000 to 10000 nM |
| COc1cc(-c2c(NC(=O)NS(C)(=O)=O)c(C(C)C)cc(F)c2C2CC2)ccn1 | 500 to 1000 nM |
| Cc1cc2c(c(NC(=O)NS(C)(=O)=O)c1-c1ccnc(C#N)c1)CCC2 | 500 to 1000 nM |

====

target: NLRP3 (Homo sapiens); test: Human whole blood IL-1β release assay; assay type: cell-based; set-up: Human whole blood in Li-heparin tubes was obtained from healthy donors from a volunteer donor panel; from tissue; host or cells: human whole blood from healthy donors; details: LPS 1 μg/ml, nigericin 10 μM, IL-1β AlphaLisa, read-out: HWB IC50
VALUE_TYPE: IC50

| STRUCTURE_AS_SMILES | ASSAY_SYSTEM | RECORDED_RESULT |
| --- | --- | --- |
| [2H]C([2H])([2H])Oc1cc(-c2c(C)cc3c(c2NC(=O)NS(C)(=O)=O)CCC3)ccn1 | NLRP3 (Homo sapiens) | 250 to 500 nM |
| CCOc1cc(-c2c(C)cc3c(c2NC(=O)NS(C)(=O)=O)CCC3)ccn1 | NLRP3 (Homo sapiens) | 250 to 500 nM |
| COc1cc(-c2c(C)cc3c(c2NC(=O)NS(=O)(=O)c2ccccc2)CCC3)ccn1 | NLRP3 (Homo sapiens) | 1000 to 2000 nM |
| [2H]C([2H])([2H])Oc1cc(-c2c(C)c(F)cc(C(C)C)c2NC(=O)NS(C)(=O)=O)ccn1 | NLRP3 (Homo sapiens) | 500 to 1000 nM |

====

biological target: NLRP3 (Homo sapiens, UniProt Q96P20); experiment: Human whole blood IL-1β release assay; type: cell-based; parameters: Human whole blood in Li-heparin tubes was obtained from healthy donors from a volunteer donor panel; from tissue; host or cells: human whole blood from healthy donors; conditions: LPS 1 μg/ml, nigericin 10 μM, IL-1β AlphaLisa, read-out: HWB IC50
Sequence (Q96P20 whole entry): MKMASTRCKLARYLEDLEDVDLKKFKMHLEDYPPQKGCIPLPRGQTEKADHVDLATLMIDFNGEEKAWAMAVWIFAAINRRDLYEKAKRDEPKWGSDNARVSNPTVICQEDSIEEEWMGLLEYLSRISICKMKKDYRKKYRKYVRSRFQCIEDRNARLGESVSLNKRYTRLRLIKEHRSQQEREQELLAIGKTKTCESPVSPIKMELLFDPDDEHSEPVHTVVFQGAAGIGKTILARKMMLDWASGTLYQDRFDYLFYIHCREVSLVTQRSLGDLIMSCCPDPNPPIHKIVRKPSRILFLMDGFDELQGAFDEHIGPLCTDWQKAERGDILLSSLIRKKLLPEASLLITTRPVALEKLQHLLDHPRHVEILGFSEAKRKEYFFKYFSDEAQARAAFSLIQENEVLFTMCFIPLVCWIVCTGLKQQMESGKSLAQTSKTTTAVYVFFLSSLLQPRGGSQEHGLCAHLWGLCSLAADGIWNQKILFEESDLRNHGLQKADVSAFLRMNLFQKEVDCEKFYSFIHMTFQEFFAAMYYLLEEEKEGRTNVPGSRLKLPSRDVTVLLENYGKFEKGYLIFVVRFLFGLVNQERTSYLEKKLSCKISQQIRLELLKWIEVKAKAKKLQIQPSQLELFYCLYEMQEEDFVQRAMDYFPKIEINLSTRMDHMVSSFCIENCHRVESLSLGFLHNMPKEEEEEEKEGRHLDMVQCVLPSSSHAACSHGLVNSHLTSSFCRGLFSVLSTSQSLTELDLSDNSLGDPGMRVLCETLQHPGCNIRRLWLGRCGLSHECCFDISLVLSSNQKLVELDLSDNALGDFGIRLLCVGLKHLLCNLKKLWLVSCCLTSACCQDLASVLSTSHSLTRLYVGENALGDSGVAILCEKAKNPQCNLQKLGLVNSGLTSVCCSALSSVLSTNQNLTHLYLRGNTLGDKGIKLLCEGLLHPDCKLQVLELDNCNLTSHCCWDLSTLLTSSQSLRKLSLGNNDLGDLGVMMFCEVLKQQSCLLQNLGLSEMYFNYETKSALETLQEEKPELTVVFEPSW
pIC50: −log10 of the molar value.
Reported pIC50 values are given for each entry in this list.
VALUE_TYPE: pIC50

| MOLECULE | RECORDED_RESULT |
| --- | --- |
| COc1cc(-c2c(C)c(F)cc(C(C)C)c2NC(=O)NS(=O)(=O)c2ccn(C3CC3)n2)ccn1 [Example 29] | 5.70 to 6.00 |
| Cc1cc2c(c(NC(=O)NS(C)(=O)=O)c1-c1ccnc(OC3CCN(C)CC3)c1)CCC2 [Example 28] | ≥ 6.60 |
| Cc1cc2c(c(NC(=O)NS(=O)(=O)C3CC3)c1-c1ccnc(OC3CCN(C)CC3)c1)CCC2 [Example 21] | ≥ 6.60 |
| Cc1cc2c(c(NC(=O)NS(C)(=O)=O)c1-c1ccnc(OC3CC3)c1)CCC2 [Example 4] | 6.30 to 6.60 |
| COc1cc(-c2c(F)c(F)cc(C(C)C)c2NC(=O)NS(C)(=O)=O)ccn1 [Example 33] | 5.70 to 6.00 |
| Cc1nc(C(C)C)c(NC(=O)NS(=O)(=O)c2ccn(C3CC3)n2)n1-c1ccncc1 [Example 47] | 6.30 to 6.60 |
| Cc1cc2c(c(NC(=O)NS(=O)(=O)c3ccccc3)c1-c1ccnc(OC3CCN(C)CC3)c1)CCC2 [Example 19] | 6.00 to 6.30 |
| Cc1cc2c(c(NC(=O)NS(=O)(=O)c3ccn(C(C)C)n3)c1-c1ccnc(OC3CCN(C)CC3)c1)CCC2 [Example 44] | 6.30 to 6.60 |
